Below, each of the compounds is paired with its reported pIC50 value.
# Tested on: IFNα stimulated Kit225 T cells with STAT-dependent luciferase reporter
# test: Kit225 T Cell Assay, IFNα stimulated STAT-dependent luciferase reporter
# Type: cell-based, human
# condition-details: KIT225; 200 U/mL human recombinant IFNα, 5-6 hours, luciferase reporter; read-out: IFN[…] Kit 225 IC50
# Protocol: Kit225 T cells with a stably-integrated STAT-dependent luciferase reporter were plated in RPMI (Gibco) containing 10% heat-inactivated FBS (Gibco) and 100 U/mL PenStrep (Gibco). The cells were then stimulated with either 20 ng/mL human recombinant IL-23 or 200 U/mL human recombinant IFNα (PBL InterferonSource) for 5-6 hours. Luciferase expression was measured using the STEADY-GLO® Luciferase Assay System (Promega) according to the manufacturer's instructions. […]
// pIC50 here means minus log10 of the molar concentration (mol/L)

Here are 3 compounds together with their reported answers.
In: Checklist item: pIC50 tested on IFNα stimulated Kit225 T cells with STAT-dependent luciferase reporter, entry "[2H]C([2H])([2H])NC(=O)c1nnc(Nc2ccc(Cl)cn2)cc1Nc1ncccc1P(C)(C)=O" , value?
Out: 7.13

In: Checklist item: pIC50 tested on IFNα stimulated Kit225 T cells with STAT-dependent luciferase reporter, entry "[2H]C([2H])([2H])NC(=O)c1nnc(Nc2ccc(OC(F)(F)F)cn2)cc1Nc1ncccc1P(C)(C)=O" , value?
Out: 7.66

In: Checklist item: pIC50 tested on IFNα stimulated Kit225 T cells with STAT-dependent luciferase reporter, entry "[2H]C([2H])([2H])NC(=O)c1nnc(Nc2ccc(C(C)(C)O)cn2)cc1Nc1ccccc1P(C)(C)=O" , value?
Out: 6.37

Continuing:
In: Checklist item: pIC50 tested on IFNα stimulated Kit225 T cells with STAT-dependent luciferase reporter, entry "[2H]C([2H])([2H])NC(=O)c1nnc(Nc2ccn(C)n2)cc1Nc1ccccc1P(C)(C)=O" , value?
Out: 5.75

In: Checklist item: pIC50 tested on IFNα stimulated Kit225 T cells with STAT-dependent luciferase reporter, entry "[2H]C([2H])([2H])NC(=O)c1nnc(Nc2cccc(OC)n2)cc1Nc1ncccc1P(C)(C)=O" , value?
Out: 7.48

In: Checklist item: pIC50 tested on IFNα stimulated Kit225 T cells with STAT-dependent luciferase reporter, entry "[2H]C([2H])([2H])NC(=O)c1nnc(NC(=O)C2CC2)cc1Nc1ncccc1P(C)(C)=O" , value?
Out: 6.29

In: Checklist item: pIC50 tested on IFNα stimulated Kit225 T cells with STAT-dependent luciferase reporter, entry "[2H]C([2H])([2H])NC(=O)c1nnc(Nc2cccc(C(F)(F)F)n2)cc1Nc1ncccc1P(C)(C)=O" , value?
Out: 6.86

In: Checklist item: pIC50 tested on IFNα stimulated Kit225 T cells with STAT-dependent luciferase reporter, entry "[2H]C([2H])([2H])NC(=O)c1nnc(Nc2cc(C)ccn2)cc1Nc1ncccc1P(C)(C)=O" , value?
Out: 7.30

In: Checklist item: pIC50 tested on IFNα stimulated Kit225 T cells with STAT-dependent luciferase reporter, entry "[2H]C([2H])([2H])NC(=O)c1nnc(Nc2ccc(C)cn2)cc1Nc1ncccc1P(C)(C)=O" , value?
Out: 7.49

In: Checklist item: pIC50 tested on IFNα stimulated Kit225 T cells with STAT-dependent luciferase reporter, entry "[2H]C([2H])([2H])NC(=O)c1nnc(Nc2ccc(OC)nn2)cc1Nc1ccccc1P(C)(C)=O" , value?
Out: 5.04

* * *

# target-system: recombinant human His-tagged Tyk2 pseudokinase domain (His-TVMV-Tyk2, 575-869) (Homo sapiens, UniProt P29597)
# Sequence (P29597 with tags, fused parts or gaps): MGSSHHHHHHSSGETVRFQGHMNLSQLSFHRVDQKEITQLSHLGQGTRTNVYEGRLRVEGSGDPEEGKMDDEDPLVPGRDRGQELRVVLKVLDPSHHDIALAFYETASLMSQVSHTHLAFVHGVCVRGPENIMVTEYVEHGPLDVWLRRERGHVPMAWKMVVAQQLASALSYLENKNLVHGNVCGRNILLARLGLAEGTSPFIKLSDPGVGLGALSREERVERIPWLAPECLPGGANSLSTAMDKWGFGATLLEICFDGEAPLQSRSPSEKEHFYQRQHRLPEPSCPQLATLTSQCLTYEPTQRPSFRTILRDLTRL
# test: Probe Displacement Assay (HTRF Format)
# condition-details: 0.5 nM Tyk2 pseudokinase domain, 1 h room temperature, read-out: Binding IC50
recorded-endpoint: log10 IC50 (log10 of the value in nM)
Please interpret these as log10 of IC50 where IC50 is in nM.

Here are 2 molecules together with their reported answers.
In: Param item = [2H]C([2H])([2H])NC(=O)c1nnc(Nc2ccccn2)cc1Nc1ncccc1P(C)(C)=O [Example 14] ; retrieve measured log10 IC50.
Out: -0.10

In: Param item = [2H]C([2H])([2H])NC(=O)c1nnc(NC(=O)C2CC2(C)C)cc1Nc1ncccc1P(C)(C)=O (stereo not shown) [Example 28] ; retrieve measured log10 IC50.
Out: 1.23

Query molecule follows.
In: Param item = [2H]C([2H])([2H])NC(=O)c1nnc(Nc2ccc(C3CC3)cn2)cc1Nc1ccccc1P(C)(C)=O [Example 5] ; retrieve measured log10 IC50.
Out: 0.72

* * *

# target-system: recombinant human His-tagged Tyk2 pseudokinase domain (His-TVMV-Tyk2, 575-869) (Homo sapiens)
# test: Probe Displacement Assay (HTRF Format)
# condition-details: 0.5 nM Tyk2 pseudokinase domain, 1 h room temperature, read-out: Binding IC50
Below, each of the molecules is paired with its reported pIC50 value.
// pIC50 here means minus log10 of the molar concentration (mol/L)

In: Param item = [2H]C([2H])([2H])NC(=O)c1nnc(Nc2ccc(F)c(C)n2)cc1Nc1ncccc1P(C)(C)=O [Example 31] ; retrieve measured pIC50.
Out: 9.27

* * *

Below, each of the molecules is paired with its reported pIC50 value.
# target-system: recombinant human His-tagged Tyk2 pseudokinase domain (His-TVMV-Tyk2, 575-869) (Homo sapiens, UniProt P29597)
# test: Probe Displacement Assay (HTRF Format)
# condition-details: 0.5 nM Tyk2 pseudokinase domain, 1 h room temperature, read-out: Binding IC50
// pIC50 here means minus log10 of the molar concentration (mol/L)

In: Param item = "[2H]C([2H])([2H])NC(=O)c1nnc(Nc2cccc(C(F)(F)F)n2)cc1Nc1ncccc1P(C)(C)=O" ; retrieve measured pIC50.
Out: 9.34

In: Param item = "[2H]C([2H])([2H])NC(=O)c1nnc(NC(=O)C2CC2)cc1Nc1ncccc1P(C)(C)=O" ; retrieve measured pIC50.
Out: 8.85

In: Param item = "[2H]C([2H])([2H])NC(=O)c1nnc(Nc2ccc(F)cn2)cc1Nc1ncccc1P(C)(C)=O" ; retrieve measured pIC50.
Out: 9.27

Continuing:
In: Param item = "[2H]C([2H])([2H])NC(=O)c1nnc(Nc2cc(C)nc(C)n2)cc1Nc1ccccc1P(C)(C)=O" ; retrieve measured pIC50.
Out: 8.80

* * *

Below, each of the compounds is paired with its reported IC50 value.
# target-system: recombinant human His-tagged Tyk2 pseudokinase domain (His-TVMV-Tyk2, 575-869) (Homo sapiens, UniProt P29597)
# test: Probe Displacement Assay (HTRF Format)
# condition-details: 0.5 nM Tyk2 pseudokinase domain, 1 h room temperature, read-out: Binding IC50
Express it in pM; write the number only.

In: Param item = [2H]C([2H])([2H])NC(=O)c1nnc(Nc2ccc(C(F)(F)F)cn2)cc1Nc1ncccc1P(C)(C)=O [Example 39] ; retrieve measured IC50.
Out: 340

In: Param item = [2H]C([2H])([2H])NC(=O)c1nnc(Nc2ccc(C)c(C)n2)cc1Nc1ncccc1P(C)(C)=O [Example 29] ; retrieve measured IC50.
Out: 540

In: Param item = [2H]C([2H])([2H])NC(=O)c1nnc(Nc2ccc(OC)nn2)cc1Nc1ccccc1P(C)(C)=O [Example 4] ; retrieve measured IC50.
Out: 10000

In: Param item = [2H]C([2H])([2H])NC(=O)c1nnc(Nc2ccc(C)cn2)cc1Nc1ncccc1P(C)(C)=O [Example 30] ; retrieve measured IC50.
Out: 560

In: Param item = [2H]C([2H])([2H])NC(=O)c1nnc(Nc2cccc(C)n2)cc1Nc1ncccc1P(C)(C)=O [Example 18] ; retrieve measured IC50.
Out: 440

In: Param item = [2H]C([2H])([2H])NC(=O)c1nnc(Nc2cc(C)ccn2)cc1Nc1ncccc1P(C)(C)=O [Example 21] ; retrieve measured IC50.
Out: 620

Query compound follows.
In: Param item = [2H]C([2H])([2H])NC(=O)c1nnc(Nc2cccc(OC)n2)cc1Nc1ncccc1P(C)(C)=O [Example 24] ; retrieve measured IC50.
Out: 970

* * *

# target-system: recombinant human His-tagged Tyk2 pseudokinase domain (His-TVMV-Tyk2, 575-869) (Homo sapiens)
# test: Probe Displacement Assay (HTRF Format)
# condition-details: 0.5 nM Tyk2 pseudokinase domain, 1 h room temperature, read-out: Binding IC50
pIC50: −log10 of the molar value.
Note to self: values exactly at 9 are True. So pIC50 at or above 9 is True, below is False.

These solved cases illustrate the format of a correct answer.
In: Is reported pIC50 greater than or equal to 9 here: "[2H]C([2H])([2H])NC(=O)c1nnc(Nc2ccc(C(C)(C)O)cn2)cc1Nc1ccccc1P(C)(C)=O"
Out: False

In: Is reported pIC50 greater than or equal to 9 here: "[2H]C([2H])([2H])NC(=O)c1nnc(Nc2ccc(Cl)cn2)cc1Nc1ncccc1P(C)(C)=O"
Out: True

In: Is reported pIC50 greater than or equal to 9 here: "[2H]C([2H])([2H])NC(=O)c1nnc(Nc2ccc(C3CC3)cn2)cc1Nc1ncccc1P(C)(C)=O"
Out: True

In: Is reported pIC50 greater than or equal to 9 here: [2H]C([2H])([2H])NC(=O)c1nnc(NC(=O)C2CC23CC3)cc1Nc1ncccc1P(C)(C)=O (stereo not shown)
Out: False

Continuing:
In: Is reported pIC50 greater than or equal to 9 here: "[2H]C([2H])([2H])NC(=O)c1nnc(Nc2ccc(OC(F)(F)F)cn2)cc1Nc1ncccc1P(C)(C)=O"
Out: True
